system: A2780 ovarian carcinoma cells; test: Determination of antiproliferative activity on A2780 cells (MTT); type: cell-based; conditions: Homo sapiens, 96 h, four days of incubation, read-out: Cellular activity pIC50 (converted)
outcome-measure: IC50 (nM)

Study these solved cases before continuing.
compound	unit-name	IC50
O=C(NO)c1cnc(N2CCN(C(=O)N(c3ccccc3)c3ccccc3)CC2)nc1 [Co. No. 4]	nM	769
CN(C(=O)N1CCN(c2ncc(C(=O)NO)cn2)CC1)c1ccccc1 [compound 48]	nM	723
O=C(NO)c1cnc(N2CCN(C(=O)Nc3ccc(-c4ccccc4)cc3)CC2)nc1 [Co. No. 6]	nM	277

A = O=C(NCC1CCN(c2ncc(C(=O)NO)cn2)CC1)Nc1ccc(-c2ccccc2)cc1 [Co. No. 5]
B = Cc1ccc(NC(=O)N2CCN(c3ccc(C(=O)NO)cc3)CC2)cc1 [Co. No. 1]
query: Could you kindly indicate whether A or B has the higher IC50 value? Reply briefly: the label of your chosen item.
result: B
(B: 4700 nM, A: 711 nM)
